Assay: Drug repurposing screens with cells derived from glioblastoma tumor samples (AID 1345199); further: on the % scale 0 is the no-effect control and ±100 the full control effect
Conditions: GBM patient neurospheres viability, ATP luminescence, 48 h; at 46 µM (top of the series); tumour line A
Results filed as inconclusive are left out.
Entries and their activity, negative = cell killing

Molecule: O=C(Cc1cccs1)N[C@@H]1C(=O)N2C(C(=O)[O-])=C(C[n+]3ccccc3)CS[C@H]12
Unit text: %
activity, negative = cell killing: -29.7
//
Molecule: O=C(NNCNNC(=O)c1ccncc1)c1ccncc1
Unit text: %
activity, negative = cell killing: -25.1
//
Molecule: CO/N=C(\C(=O)N[C@@H]1C(=O)N2C(C(=O)O)=CCS[C@H]12)c1csc(N)n1
Unit text: %
activity, negative = cell killing: -10.3
//
Molecule: CC(C)[C@@H]1CC[C@@H](C)C[C@H]1O
Unit text: %
activity, negative = cell killing: -18.1
//
Molecule: CCc1cn([C@H]2C[C@H](O)[C@@H](CO)O2)c(=O)[nH]c1=O
Unit text: %
activity, negative = cell killing: -8.93
//
Molecule: O=P(O)(O)OC[C@H](O)CO
Unit text: %
activity, negative = cell killing: -27.1
//
Molecule: CO[C@H]1C=CO[C@@]2(C)Oc3c(C)c(O)c4c(O)c(cc(O)c4c3C2=O)NC(=O)/C(C)=C\C=C/[C@H](C)[C@H](O)[C@@H](C)[C@@H](O)[C@@H](C)[C@H](OC(C)=O)[C@@H]1C
Unit text: %
activity, negative = cell killing: -17.1
//
Molecule: CC(=O)Nc1ccc(OC(=O)c2ccccc2O)cc1
Unit text: %
activity, negative = cell killing: -14.5
//
Molecule: O=C(O)c1ccc(NC2OC[C@@H](O)[C@H](O)[C@H]2O)cc1 (stereo partly drawn)
Unit text: %
activity, negative = cell killing: -26.5
//
Molecule: c1ccc(-n2cnnn2)cc1
Unit text: %
activity, negative = cell killing: -23.5
//
Molecule: OCC(O)CO
Unit text: %
activity, negative = cell killing: -18.9
//
Molecule: CCC(Cc1c(I)cc(I)c(O)c1I)C(=O)O (stereo not drawn)
Unit text: %
activity, negative = cell killing: -17.6
//
Molecule: CC(=O)Nc1ccc(OC(C)=O)cc1
Unit text: %
activity, negative = cell killing: -21
//
Molecule: NC(=O)OC[C@@H]1[C@H](NC(=O)/C(=N\OCC(=O)O)c2csc(N)n2)C(=O)N1S(=O)(=O)O
Unit text: %
activity, negative = cell killing: -4.61
//
Molecule: OC[C@@H](O)C(O)[C@H](O)CO
Unit text: %
activity, negative = cell killing: -25
//
Molecule: CC(=O)NCCCS(=O)(=O)O
Unit text: %
activity, negative = cell killing: -10.5
//
Molecule: CC1(C)S[C@@H]2[C@H](NC(=O)C3(N)CCCCC3)C(=O)N2[C@H]1C(=O)O
Unit text: %
activity, negative = cell killing: -7.56
//
Molecule: C[C@]12CC[C@@H]3c4ccc(O)cc4CC[C@H]3[C@@H]1CC[C@@H]2OP(=O)(O)O
Unit text: %
activity, negative = cell killing: -23.9
//
Molecule: CCCCC(CC)COS(=O)(=O)O (stereo not drawn)
Unit text: %
activity, negative = cell killing: -18.8
//
Molecule: CCCCCCOC(=O)c1cccnc1
Unit text: %
activity, negative = cell killing: -5.32
//
Molecule: O=C(O)CCC/C=C\C[C@@H]1[C@@H](/C=C/[C@@H](O)COc2cccc(Cl)c2)[C@H](O)C[C@@H]1O
Unit text: %
activity, negative = cell killing: -25.8
//
Molecule: CNC(=O)c1c(I)c(C(=O)NCC(=O)Nc2c(I)c(C(=O)O)c(I)c(C(=O)NCCO)c2I)c(I)c(N(C)C(C)=O)c1I
Unit text: %
activity, negative = cell killing: -7.61
//
Molecule: OB(O)O
Unit text: %
activity, negative = cell killing: -26.5
